Please respond with reported TGI for every item in the list.
Test system: RPMI-8226 leukemia
test: NCI tumour cell line growth inhibition, 48 h
Your answer should be a plain number; it is taken to be in µM.

Record O=C(/C=C/C12c3ccccc3C(c3ccccc31)C1C(=O)NC(=O)C12)c1ccc(Cl)cc1 (configuration not stated) . Reported TGI: 4.5

Record Nc1c2c(nc3ccccc13)-c1ccccc1NCCC2 . Reported TGI: 58.5

Record CCOC(=O)/C=C/C(=O)[C@H](CC(C)C)NC(=O)[C@H](Cc1ccccc1)NC(=O)OCc1ccccc1 . Reported TGI: 5.97

* * *

System: NCI-H522 lung
test: NCI tumour cell line growth inhibition, 48 h
endpoint name: TGI (µM)
Your answer should be a plain number; it is taken to be in µM.

Record CCOC(=O)c1cc(C2CCN(c3ccccc3)C2=O)c(C(=O)/C=C(/C)N)[nH]1 (stereo unspecified) . Reported TGI: 53.1

Record CCCCCCCCCCCCCC(=O)CSCCNC(=O)CCNC(=O)[C@@H](O)C(C)(C)COP(=O)(O)OP(=O)(O)OCC1OC(n2cnc3c(N)ncnc32)C(O)C1OP(=O)(O)O (stereo partly specified) . Reported TGI: 25.5

Record CC(C)(C)OC(=O)CN1CCN(CC(=O)N2CCN(C(=O)OCc3ccccc3)CC2)CCN(CC(=O)OC(C)(C)C)CCN(CC(=O)N2CCN(C(=O)OCc3ccccc3)CC2)CC1 . Reported TGI: 2.87

* * *

Test system: HCT-15 colon
test: NCI tumour cell line growth inhibition, 48 h; in the data active means GI50 below about 0.43 µM; inactive means the rest
Tick one outcome: active, inactive

Please indicate how the test categorized Nc1ccccc1C#C/C=C\C#Cc1c(F)c(F)c(F)c(F)c1F .
inactive

Please indicate how the test categorized c1ccc([As]=[As]c2ccccc2)cc1 (stereo not given) .
active

Please indicate how the test categorized CCOC(=O)c1cnn2c3ccccc3n(S(=O)(=O)c3ccc(OC)cc3)c12 .
active

Please indicate how the test categorized NC(=S)N=Nc1c(O)c2ccccc2c2ccccc12 .
inactive

Please indicate how the test categorized COc1cc(NCCN=C(N)NC(N)=NC(C)C)c2ncccc2c1 .
inactive

* * *

Tested on: KM12 colon
test: NCI tumour cell line growth inhibition, 48 h
Please respond with reported TGI for every item in the list.

Record COc1cc(C2c3cc4c(cc3[C@@H](Oc3ccc(F)cc3)C3COC(=O)[C@H]23)OCO4)cc(OC)c1O (some centres not stated) . Reported TGI: 27.9 µM

Record COc1ccc(Nc2nc3cc(N)cc(N)c3nc2-c2ccccc2)cc1OC . Reported TGI: 32 µM

Record C(=Nc1ccc(-c2nc3ccccc3[nH]2)cc1)c1ccco1 . Reported TGI: > 100 µM

Record CC(CN(C)C)C(=O)c1ccccc1 (configuration not stated) . Reported TGI: > 51.5 µM

Record CC1C2=C(CCCC2=O)N(c2ccc(Cl)cc2)C2=C1C(=O)CCC2 . Reported TGI: > 100 µM

Record COc1ccc(Cn2cc3c(c2-c2ccccc2)CCc2cnoc2-3)cc1N . Reported TGI: 2.58 µM

Record CN(/N=C/c1cccc2cccnc12)c1c([N+](=O)[O-])cc([N+](=O)[O-])cc1[N+](=O)[O-] . Reported TGI: > 100 µM

Record CCOC(=O)CN1CC(C2=C(O)CN(CC(=O)OCC)C2=O)=CC1=O . Reported TGI: > 100 µM

Record CCn1c2ccccc2c2ccc(C3C(C(=O)OC)=C(C)NC(C)=C3C(=O)OC)cc21 . Reported TGI: > 100 µM

Record Cc1cc(Nc2cc(N3CCN(C)CC3)nc(Sc3ccc(NC(=O)C4CC4)cc3)n2)n[nH]1 . Reported TGI: > 10 µM

Record O=C(N/N=C/c1cc(Cl)cc(Cl)c1[O-])c1ccccc1.O=C(N/N=C/c1cc(Cl)cc(Cl)c1[O-])c1ccccc1.[Co+2] . Reported TGI: > 100 µM

Record Cc1ccc2oc3c(c(Br)c(Br)n3C)c(=O)c2c1 . Reported TGI: > 100 µM

Record N#CN1CC[C@H](C(=O)Nc2cc3cc(C(N)=O)ccc3cn2)C1 . Reported TGI: 12 µM

Record NC(=Nc1cccc(Cl)c1)c1ccccc1N . Reported TGI: > 100 µM

Record COc1ccccc1NS(=O)(=O)c1ccc2oc(SC(C)C)nc2c1 . Reported TGI: 49 µM

Record O=C1CCCCC/C1=C\c1ccccc1 . Reported TGI: > 100 µM

Record COc1cc(NCCN=C(N)NC(N)=NC(C)C)c2ncccc2c1 . Reported TGI: > 41.2 µM

* * *

System: NCI-H23 lung
test: NCI tumour cell line growth inhibition, 48 h
Please respond with reported TGI for every item in the list.

Record Cc1ccc(C)c(NC(=O)CC2SC(=Nc3ccccc3Cl)NC2=O)c1 (stereo not given) . Reported TGI: > 100 µM

Record N#CCN(CC#N)C1CC=CCC1N(CC#N)CC#N (stereo not given) . Reported TGI: > 100 µM

Record CCn1c2ccccc2c2ccc(C3C(C(=O)OC)=C(C)NC(C)=C3C(=O)OC)cc21 . Reported TGI: > 100 µM

Record COc1cccc(C2C3=C(COC3=O)N(CCO)c3cc4c(cc32)OCO4)c1 (stereo not given) . Reported TGI: > 14.2 µM

Record NC(=O)c1c(NC=O)ncn1C1OCC(O)C(O)C1O (stereo not given) . Reported TGI: > 100 µM

Record COc1ccc2c3c([nH]c2c1)CCN(Cc1ccccc1)C3 . Reported TGI: > 100 µM

Record COC1CCC(=O)N1CN(C(C)=O)c1ccc(C)cc1 (stereo not given) . Reported TGI: > 100 µM

Record CC1(C)CCCCCC(C)(CCCO)C1=O (stereo not given) . Reported TGI: > 100 µM

Record CCCCCCCC(=O)OCC(=O)[C@]1(O)Cc2c(O)c3c(c(O)c2[C@@H](OC2CC(N)C(O)C(C)O2)C1)C(=O)c1c(OC)cccc1C3=O (stereo not given in full) . Reported TGI: 0.526 µM

Record O=c1oc2ccc(-c3ccc(F)cc3F)cc2c(=O)n1-c1ccc(Cl)c(C(F)(F)F)c1 . Reported TGI: 4.59 µM

* * *

System: LOX IMVI melanoma
test: NCI tumour cell line growth inhibition, 48 h
endpoint name: TGI

Record CNS(=O)(=O)OCC1OC(n2cnc3c(N)ncnc32)C(O)C1O (stereo unspecified) . Reported TGI: > 100 µM

Record CN(C)c1ccc(C(c2ccc(Cl)cc2)c2ccc(N(C)C)cc2)cc1 . Reported TGI: > 100 µM

Record O=C(CC(=O)c1cccc(Cl)c1)c1cccc(Cl)c1 . Reported TGI: > 100 µM

Record COC1C2c3cc4c(cc3CC(C#N)(c3ccccc32)N1C(=O)c1ccccc1)OCO4 (stereo unspecified) . Reported TGI: > 100 µM

Record C/C=C/COC(=O)CO[N+](=O)[O-] . Reported TGI: > 100 µM

Record CCOC(=O)c1cnn2c3ccccc3n(S(=O)(=O)c3ccc(OC)cc3)c12 . Reported TGI: > 61 µM

* * *

Test system: MDA-N
test: NCI tumour cell line growth inhibition, 48 h
Please respond with reported TGI for every item in the list.

Record CO[C@@H]1C[C@H](OC(N)=O)[C@@H]2C=C[C@@H]3/C=C(C)/C=C/[C@@H](C)[C@H](/C(C)=C/[C@@H](C)NC(C)=O)OC(=O)/C=C/C=C(C)\C=C\[C@]3(C)[C@@H]2C1 . Reported TGI: 2.12 µM

Record O=C1CSC2=NC3=C(CSC/C3=C\c3ccccc3)C(c3ccccc3)N12 (stereo not drawn) . Reported TGI: > 100 µM

Record CCCC1(CCC)c2cc(/C=N\O)ccc2-c2ccc(-c3ccc(C(C)(C)C)cc3)cc21 . Reported TGI: > 100 µM

Record COc1ccc(N2C(=O)C3c4[nH]c5ccc(F)cc5c4C4CCC(C(C)(C)C)CC4C3C2=O)cc1 (stereo not drawn) . Reported TGI: > 10 µM

Record CC(=O)OC1CC[C@@]2(C)C(CC[C@]3(C)C2CC=C2[C@@H]4C(C)[C@H](C)CCC4(C)CCC23C)[C@@]1(C)C(=O)O (stereo partly drawn) . Reported TGI: 42.3 µM

Record CCn1c(=O)c2nc(SC)sc2n(-c2ccccc2)c1=O . Reported TGI: > 100 µM

Record COc1cc(NC=C2C(=O)OC(C)(C)OC2=O)c(OC)c(C)c1OC . Reported TGI: > 100 µM

Record CC[P+]1(c2ccccc2)[C@@H](C)CC[C@@H]1C . Reported TGI: > 100 µM

Record Cc1c(N2C(=O)/C(=C/c3ccc(N(CCC#N)CCC#N)cc3)N=C2c2ccccc2)c(=O)n(-c2ccccc2)n1C . Reported TGI: > 100 µM

Record CCOC(=O)c1cc(C2CCN(c3ccccc3)C2=O)c(C(=O)/C=C(/C)N)[nH]1 (stereo not drawn) . Reported TGI: > 100 µM

Record C(=Nc1ccc(-c2nc3ccccc3[nH]2)cc1)c1ccco1 . Reported TGI: > 100 µM

Record Cc1ccc2[nH]c3[nH]c(=S)[nH]c(=O)c3c2c1 . Reported TGI: > 100 µM

Record O=C(Nc1cccc2ccccc12)c1ccccc1 . Reported TGI: > 100 µM
